Just for reference, PubChem BioAssay (NCI) is where these values come from.

tested on: NCI/ADR-RES ovarian; assay: NCI tumour cell line growth inhibition, 48 h
measurement.name: GI50

Req: For Nc1ccncc1/C=C1/C(=O)Nc2ccccc21 , write its GI50.
Resp: 35.9 µM

Req: Please list GI50 recorded for the compound CN(C)c1ccc2nc3ccc(=O)cc-3sc2c1
Resp: 0.665 µM

Req: // fetch GI50 given entry Cc1[nH]n(-c2cccc(Cl)c2)c(=O)c1/C=C1\C=Nc2ccc(Br)cc21
Resp: 3.4 µM

Req: Input CCN(CC)CCOc1ccc(/C(=C(\C)c2ccc(F)c(OC)c2)c2ccc(Cl)cc2)cc1 , output reported GI50.
Resp: 2.36 µM

Req: State, in one line, measured GI50 of CN1CCc2c(Sc3ccc(C(=O)NO)cc3)c3ccccc3n2C1
Resp: 6.81 µM

Req: Please supply the value of reported GI50 for the item COc1ccc(-n2cc(-c3ccc(Cl)c(Cl)c3)nc2SCc2cccc(C#N)c2)cc1
Resp: 23 µM

* * *

test system: HCC-2998 colon; experiment: NCI tumour cell line growth inhibition, 48 h
measurement.name: TGI (µM)
Kindly answer with a numeric value in µM, unit omitted.

Req: Please supply the value of reported TGI for the item c1ccc2c3ccn4cc5c(cc4c-3nc2c1)CCCC5
Resp: 15

Req: Answer with the recorded TGI for the compound listed here: O=C1NC(=O)C(c2c[nH]c3cc(Br)ccc23)=C1c1cn(C(c2ccccc2)(c2ccccc2)c2ccccc2)cn1
Resp: 26.4

Req: # return recorded TGI for entry CCCS(=O)(=O)Nc1ccc(Nc2c3ccccc3nc3ccccc23)c(OC)c1
Resp: 6.3

Req: Quickly give me recorded TGI for CC(=O)OC1CC2c3cccc4c3C(CC2N(C)C1=O)CN4C(=O)c1ccccc1 (centres undefined)
Resp: 43.5

Req: Give TGI for the following compound: O=c1cc(-c2ccccc2)[nH]c2cc3c(cc12)OCO3
Resp: 55.6

Req: Provide measured TGI value, entry: Cc1ccc(N(CSc2ccc(Cl)cc2)CSc2ccc(Cl)cc2)cc1
Resp: 11.7

Req: Provide one value: measured TGI of CCN(CC)CC(C)(C)C(=O)/C=C/c1ccc(Cl)c(Cl)c1
Resp: 3.08

Req: Respond only with TGI recorded for CN(C)Cc1c[nH]c2c1C(=O)c1c(c(O)c3ccccc3c1O)C2=O
Resp: 21.9

Req: Specify reported TGI for the compound shown: CCOC(=O)CC1c2ccc(O)cc2OC(=O)C1c1ccc([N+](=O)[O-])cc1 (centres undefined)
Resp: 60.6

* * *

test system: SK-MEL-28 melanoma; assay: NCI tumour cell line growth inhibition, 48 h; in the data active = GI50 below about 0.43 µM; inactive = the rest
Pick one: active, inactive

Req: Given O=C(Nc1ccc(Cl)cc1F)c1cc(Br)ccc1O , state the outcome it received in this test.
Resp: inactive

Req: Record request — test call for O=C(Nc1cccc(Cl)c1Cl)c1cccc(NC2=C(Cl)C(=O)N(Cc3ccccc3)C2=O)c1
Resp: inactive

Req: Just curious, what result did COc1cc(NC(C)CCCN)c2nccc(C)c2c1OC (stereo unspecified) get here?
Resp: inactive

Req: Hi, sorry to bother you, what did the test record for COc1cc2cn3c4ccc(O)cc4[nH]c(=O)c3c2cc1OC ?
Resp: active

Req: Record request — test call for CC(=O)Oc1ccccc1C(=O)N=C1[Se]CCN1C(=O)c1ccccc1OC(C)=O
Resp: inactive

Req: What was the test verdict on Cc1ccc(N(CSc2ccc(Cl)cc2)CSc2ccc(Cl)cc2)cc1 ?
Resp: inactive

Req: What did the test return for CCOC(=O)N1CCN(C(=O)c2ccc(C(F)(F)F)nc2Nc2cc(Cl)ccc2C)CC1 ?
Resp: inactive

Req: So what was the verdict on Cc1c[n+](Cc2ccc3ccccc3c2)cn1Cc1ccc2ccccc2c1 in this test?
Resp: inactive

Req: Which outcome did this test record for the compound COc1ccc(-c2cc(-c3cccn3C)c(C#N)c(N)n2)cc1OC ?
Resp: inactive

Req: Query: recorded result category for O=c1[nH]c2cc(Cl)ccc2n1C1CCN(CCCC(c2ccc(F)cc2)c2ccc(F)cc2)CC1 in this test
Resp: inactive

Req: Assay outcome for CCN(CC)CC(C)(C)C(=O)/C=C/c1ccc(Cl)c(Cl)c1 : what was it?
Resp: inactive
